Experiment: NCI Yeast Anticancer Drug Screen. Data for the sgs1 mgt1 strain (AID 161);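 further: 0% = growth of cultures given vehicle only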
Conditions: S. cerevisiae sgs1 mgt1 strain, at 50.0 µM
About 79,000 compounds went through this panel and 15% of them were active in at least one assay; those are over-represented in the sample as a whole. Calls of active or inactive are those of the source. No stated cut-off is given here; in the data, active means growth inhibition above about 70%; inactive means the rest.
Give one outcome, nothing more. List: active, inactive

CN(C)Cc1ccc(C(C)(C)C)cc1-c1cc(C(C)(C)C)ccc1CN(C)C ... inactive
CC1=C2CCC3C(CCC4(C)C(C(C)CCCC(C)C)CCC34)C2(C)CCC1=O (stereo unspecified) ... inactive
CN(C)C(=O)c1ccccc1SC(=S)NCc1ccccc1 ... active
Oc1ccc(-c2nnc(-c3ccc(Cl)cc3Cl)o2)cc1 ... inactive
CC(C)Sc1nc(NC(=O)N(CCCl)N=O)cc(=O)[nH]1 ... inactive

Query: recorded result category for FC(F)(F)c1ccccc1NC(=S)SCc1ccc2c(c1)OCO2 in this test active

Query: recorded result category for CCCCCCCCCCCCOC(=O)C[n+]1cccc(C(N)=O)c1 in this test active

Query: recorded result category for CCCCC(/C=N\NC(=O)c1ccc[n+](C)c1)=C/c1ccccc1 in this test active

Query: recorded result category for CC(=O)NC1C(=O)CC(c2ccccc2)N(C)C1c1ccccc1 (stereo unspecified) in this test inactive

Query: recorded result category for Nc1ccc(-c2nc3ccccc3s2)cc1I in this test active

Query: recorded result category for O=c1cccc(C2CCc3cc(O)ccc3C2)[nH]1 (stereo unspecified) in this test inactive

* * *

Assay: NCI Yeast Anticancer Drug Screen. Data for the sgs1 mgt1 strain (AID 161);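 further: 0% = growth of cultures given vehicle only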
Details: S. cerevisiae sgs1 mgt1 strain, at 50.0 µM (retest, dose inferred, filed as 5.0)
Compounds without any hit were thinned out: in the full panel of roughly 79,000, 15% have a hit. Calls of active or inactive are those of the source. Cut-off read from the data, not from the text of the source: active = growth inhibition above about 70%; inactive = the rest.
Give one outcome, nothing more. List: active, inactive

Reference set, count: 5
Clc1ccc(CN2COc3c(cc(Cl)c4cccnc34)C2)cc1Cl ... active
O=C(NCCl)Nc1ccccc1 ... active
OC(CN1CCC(c2ccccc2)CC1)c1ccc(Br)cc1 (configuration not stated) ... inactive
NSc1ccc(N)s1 ... inactive
C[n+]1c2ccc(Cl)cc2nc2cc(-c3ccccc3)ccc21 ... active

Query: recorded result category for CN(C)c1ccc(/C=C(\C#N)c2cccc(Cl)c2)cc1 in this test inactive

Query: recorded result category for CCCCC(CSC#N)SC#N (configuration not stated) in this test active

Query: recorded result category for CC(=O)Nc1ccc(/C=c2\sc3nnc(-c4cccnc4)n3c2=O)cc1 in this test active

* * *

Experiment: NCI Yeast Anticancer Drug Screen. Data for the cln2 rad14 strain (AID 165);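 further: 0% = growth equal to vehicle treated cultures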
Conditions: S. cerevisiae cln2 rad14 strain, at 50.0 µM, active compounds read high
This is part of a sample that, as a whole, favours compounds with a hit. Of some 79,000 tested, about 15% had one in any assay. Activity calls are given as the source filed them. Rule as the data show it: active = growth inhibition above about 70%; inactive = the rest.
Documented growth inhibition across a set of compounds

Nc1ccccc1Sc1ccc(C(F)(F)F)cc1[N+](=O)[O-] ... 94.7% (active)
O=c1c2ccccc2sc2c1c(N(CCO)CCO)cc1ccccc12 ... 96.2% (active)
Fc1cccc(NC(=S)SCc2ccc(Cl)cc2)c1 ... 99.5% (active)
Nc1ccccc1Sc1ccccc1 ... 83.2% (active)
NC(N)=Nc1ccc(C(=O)Oc2c(Cl)cc([N+](=O)[O-])cc2Cl)cc1 ... 21.9% (inactive)
CC(=O)Oc1cccc2c(OC(C)=O)cccc12 ... 26.9% (inactive)
O=C(CCCCCCCCCCc1ccccc1)c1ccc(Cl)cc1 ... 70.8% (active)
CC[O-].CC[O-].[O-]c1ccccc1C=Nc1ccccc1.[O-]c1ccccc1C=Nc1ccccc1.[Ti+4] ... 29.9% (inactive)

Please report growth inhibition for the following compound: CC(CCN)(CCN)[N+](=O)[O-] 46.3% (inactive)

Please report growth inhibition for the following compound: N#Cc1c(Cl)nsc1-c1ccc([N+](=O)[O-])cc1 88.8% (active)

Please report growth inhibition for the following compound: CCCCCC/C=C/C#CCCCCCCCC(=O)O 11.8% (inactive)

Please report growth inhibition for the following compound: CC1=C(C(=O)OCCc2ccc([N+](=O)[O-])cc2)C(c2ccccc2[N+](=O)[O-])C(C(=O)OC(C)C)=C(C)N1 (stereo not drawn) 68.4% (inactive)

Please report growth inhibition for the following compound: CCOc1ccccc1NC1=C(Cl)C(=O)c2ccccc2C1=O 97% (active)
